tested on: A549; experiment: Euclidean distance of Cell Painting phenotypic profile (signed KS, 77 features) to DMSO centroid (dimensionless distance); 5 or 10 uM (library dependent); higher = stronger phenotypic change vs DMSO (phenoactivity); conditions: 48 h
Structures can show the parent of a compound that is named as a salt.
observed_property: Euclidean distance
Hey, just send me the number, nothing else.

- compound: "Clc1cccc(Cl)c1NC1=NCCN1 [Clonidine HCl]"
  Euclidean distance: 1.46
- compound: "Clc1ccc2nsnc2c1NC1=NCCN1"
  Euclidean distance: 0.538
- compound: "CC(C)c1ccc2oc3nc(N)c(C(=O)O)cc3c(=O)c2c1"
  Euclidean distance: 0.9
- compound: "C/C(O)=C(\\C#N)C(=O)Nc1ccc(C(F)(F)F)cc1 [Teriflunomide]"
  Euclidean distance: 0.732

In: Item under review: O=P(O)(O)OC(Cn1cncn1)(Cn1cncn1)c1ccc(F)cc1F . Reported Euclidean distance?
Out: 0.635

In: Which Euclidean distance reading was recorded for the compound CC(N/C(=N\C#N)Nc1ccncc1)C(C)(C)C (stereo unspecified) ?
Out: 0.907
